# Measured target: WT STING (Homo sapiens, UniProt Q86WV6, H232R)
# Sequence (Q86WV6 whole entry H232R): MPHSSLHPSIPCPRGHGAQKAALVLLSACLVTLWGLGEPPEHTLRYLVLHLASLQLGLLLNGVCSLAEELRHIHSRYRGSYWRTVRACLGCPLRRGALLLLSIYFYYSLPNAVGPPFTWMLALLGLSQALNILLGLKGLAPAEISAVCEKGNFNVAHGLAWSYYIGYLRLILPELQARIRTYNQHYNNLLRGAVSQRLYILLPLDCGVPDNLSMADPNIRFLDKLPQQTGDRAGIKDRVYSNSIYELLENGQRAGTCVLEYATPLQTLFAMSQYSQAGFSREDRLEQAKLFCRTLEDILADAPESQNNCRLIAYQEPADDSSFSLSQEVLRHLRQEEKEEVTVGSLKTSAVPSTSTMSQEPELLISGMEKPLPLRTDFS
# Assay comment: Digitonin assay using 293T wtSTING-FL reporter cells
# Type: cell-based
# Design: host or cells: 293T (ATCC CRL-3216), stably transfected; also carries the 4xISRE firefly luciferase reporter
# Measurement setup: 293T wtSTING-FL cells, digitonin buffer 30 min, then 5 h, ISRE firefly luciferase reporter; read-out: Digitonin assay EC50 WT STING
pEC50: −log10 of the molar value.
Answer class 0 if pEC50 is under 7, and class 1 if it is 7 or more.

Cc1cn([C@@H]2O[C@@H]3COP(=O)(O)OC4C(O)[C@@H](COP(=O)(O)OC3C2O)C[C@H]4n2cnc3c(=O)[nH]cnc32)c2ncnc(N)c12 (stereo partly shown) [Compound 123] = class 0

Decide: pEC50 of Nc1ncnc2c1ncn2[C@@H]1O[C@@H]2COP(=O)(S)O[C@@H]3[C@H](F)[C@@H](COP(=O)(S)O[C@H]2[C@H]1F)C[C@H]3n1cnc2c(=O)[nH]cnc21 (single isomer, unassigned) [Compound 128b] >= 7?
class 0

Quick check: does Nc1ncnc2c1ncn2[C@@H]1O[C@@H]2COP(=O)(O)O[C@@H]3[C@H](F)[C@@H](COP(=O)(O)O[C@H]2[C@H]1F)C[C@H]3n1cnc2c(=O)[nH]cnc21 [Compound 127] have pEC50 greater than or equal to 7?
class 1

Threshold query (pEC50 >= 7) on Nc1ncnc2c1ncn2[C@@H]1O[C@@H]2COP(=O)(O)OC3C(O)[C@@H](COP(=O)(O)OC2C1O)C[C@H]3n1cnc2c(=O)[nH]cnc21 (stereo partly shown) [Compound 120]
class 1

###

Property: log10(EC50); scope: individual compounds
# Measured target: WT STING (Homo sapiens, UniProt Q86WV6, H232R)
# Assay comment: Digitonin assay using 293T wtSTING-FL reporter cells
# Type: cell-based
# Parameters: host or cells: 293T (ATCC CRL-3216), stably transfected; also carries the 4xISRE firefly luciferase reporter
# Measurement setup: 293T wtSTING-FL cells, digitonin buffer 30 min, then 5 h, ISRE firefly luciferase reporter; read-out: Digitonin assay EC50 WT STING
Would you kindly interpret these values as log10 of EC50 expressed in nM?

Nc1nc2c(ncn2[C@@H]2C[C@@H]3COP(=O)(S)OC4C(O)[C@H](n5cnc6c(N)ncnc65)O[C@@H]4COP(=O)(O)OC2C3O)c(=O)[nH]1 (some centres unmarked) = 2.11
Nc1ncnc2c1ncn2[C@@H]1O[C@@H]2COP(=O)(S)O[C@@H]3[C@H](F)[C@@H](COP(=O)(S)O[C@H]2[C@H]1F)C[C@H]3n1cnc2c(=O)[nH]cnc21 (single isomer, unassigned) [Compound 128c] = 1.78
Nc1ncnc2c1ncn2[C@@H]1O[C@@H]2COP(=O)(O)OC3C(O)[C@@H](COP(=O)(O)OC2C1O)C[C@H]3n1cnc2c(=O)[nH]cnc21 (some centres unmarked) [Compound 121] = 2.70
Nc1nc2c(ncn2[C@@H]2C[C@@H]3COP(=O)(O)OC4C(O)[C@H](n5cnc6c(N)nc(F)nc65)O[C@@H]4COP(=O)(O)OC2C3O)c(=O)[nH]1 (some centres unmarked) = 3.18

Given the compound Nc1ncc2ncn([C@@H]3O[C@@H]4COP(=O)(O)OC5C(O)[C@@H](COP(=O)(O)OC4C3O)C[C@H]5n3cnc4c(=O)[nH]c(N)nc43)c2n1 (some centres unmarked) , what is its reported log10(EC50)?
2.30
